molecular target: recombinant human MASP2 active protease (amino acids 297-686, C-terminal His Tag) (human, UniProt O00187 297-686); test: cell-based or functional assay
Sequence (O00187 other isoform, or with tags, fused parts or gaps limits assumed): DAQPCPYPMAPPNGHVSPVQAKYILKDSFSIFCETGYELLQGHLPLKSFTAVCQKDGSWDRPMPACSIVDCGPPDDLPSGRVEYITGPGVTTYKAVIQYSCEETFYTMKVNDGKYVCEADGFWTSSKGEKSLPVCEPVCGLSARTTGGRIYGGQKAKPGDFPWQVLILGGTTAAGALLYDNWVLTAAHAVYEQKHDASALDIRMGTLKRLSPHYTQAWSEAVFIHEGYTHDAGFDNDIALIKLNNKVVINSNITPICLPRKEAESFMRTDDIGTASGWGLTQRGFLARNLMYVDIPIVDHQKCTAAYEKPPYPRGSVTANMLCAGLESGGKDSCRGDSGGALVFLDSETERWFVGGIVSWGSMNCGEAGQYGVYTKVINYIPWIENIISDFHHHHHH
Bridge positions count the residues as written; N and C are the ends. Square brackets hold non-standard residues; d marks the D form. Ends that are not written are not given here. Pro(4-spirocPr) = O=C(O)[C@@H]1CC2(CC2)CN1; tBuAla = CC(C)(C)C[C@H](N)C(=O)O; Pen = CC(C)(S)[C@H](N)C(=O)O
Quantity kind: human MASP2 IC50

Binder	Quantity kind	Value reported
AICSRS[tBuAla]P[Pro(4-spirocPr)]I[Pen]IPD-OH (disulfide 3-11; N-terminus assumed; SMILES CC[C@H](C)[C@H](NC(=O)[C@H](C)N)C(=O)N[C@H]1CSSC(C)(C)[C@@H](C(=O)N[C@H](C(=O)N2CCC[C@H]2C(=O)N[C@@H](CC(=O)O)C(=O)O)[C@@H](C)CC)NC(=O)[C@H]([C@@H](C)CC)NC(=O)[C@@H]2CC3(CC3)CN2C(=O)[C@@H]2CCCN2C(=O)[C@H](CC(C)(C)C)NC(=O)[C@H](CO)NC(=O)[C@H](CCCNC(=N)N)NC(=O)[C@H](CO)NC1=O) [AIC+SRS-((tBu)A)-P-((6S)-5-Azaspiro[2.4]heptane-6-carboxylic acid)-I-(Pen)+IPD-OH]	human MASP2 IC50	17.7 nM
